Assay: Compound gel-forming ability in water (visual inspection, tube tapping assay, tilted tube assay);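 also: peptides mixed with de-ionized water at about 22-25 °C, judged after 20 min by eye plus tube tapping (10 taps, moves counted) and 90° tilt mobility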
Assay type: physicochemical
Details: Table 5; 11% w/w
Where no end group is shown, it is not given here. [ ]: non-standard residue; d: D form. The star is where a group is joined. Palmitoyl = CCCCCCCCCCCCCCCC(=O)*; AEEA = NCCOCCOCC(=O)O
REPORTED METRIC: propensity to form gels, chimeric or mutated polypeptides, 11%

Palmitoyl-SSPHSY[AEEA]IVLSLDVPIGLLQILLEQARARAAREQATTNARILARVGHC-NH2 [SEQ ID NO:230] ... AS/IS
Pal-SSPHSY-miniPEG-EAYKAAEKAYAAKEAAKEAAKAKAEKKAAYAKAKAAKYEKKAKKAAAEYKKK ({Palmitoyl-Ser-Ser-Pro-H2N-Ser-Tyr-miniPEG}-EAYKAAEKAYAAKEAAKEAAKAKAEKKAAYAKAKAAKYEKKAKKAAAEYKKK) [SEQ ID NO:245] ... AS/IS

Where these numbers come from: patent US20200405868A1
